- targetOrTestSystem: T1, human amylin-3 (a) receptor (human, UniProt P30988 25-474; O60896 24-148)
- T1 sequence (looked up) 1: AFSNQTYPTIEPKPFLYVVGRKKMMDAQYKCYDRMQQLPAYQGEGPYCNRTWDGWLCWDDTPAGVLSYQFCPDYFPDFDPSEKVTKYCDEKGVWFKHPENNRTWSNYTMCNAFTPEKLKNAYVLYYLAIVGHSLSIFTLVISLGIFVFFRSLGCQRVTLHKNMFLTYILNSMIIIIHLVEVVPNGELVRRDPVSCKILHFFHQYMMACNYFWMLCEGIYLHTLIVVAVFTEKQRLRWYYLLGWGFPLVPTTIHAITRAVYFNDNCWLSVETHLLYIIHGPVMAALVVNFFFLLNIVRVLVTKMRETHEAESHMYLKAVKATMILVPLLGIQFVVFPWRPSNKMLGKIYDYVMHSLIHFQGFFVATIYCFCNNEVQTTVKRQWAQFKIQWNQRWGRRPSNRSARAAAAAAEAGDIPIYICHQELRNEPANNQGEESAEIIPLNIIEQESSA
- T1 sequence (looked up) 2: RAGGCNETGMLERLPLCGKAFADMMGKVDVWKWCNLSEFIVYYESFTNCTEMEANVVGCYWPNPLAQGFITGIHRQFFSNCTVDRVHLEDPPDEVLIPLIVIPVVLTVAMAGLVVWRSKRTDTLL
- testName: cell-based or functional assay
Starred links: 1 amine or outer side, 2 acyl side, 3 side chain; linkers in the order of their positions; H or OH if unused. Non-standard residues stand in square brackets, D forms with d. Groups on a side chain read outwards from the residue. *: point of attachment. C20 diacid = O=C(O)CCCCCCCCCCCCCCCCCCC(=O)*; C18 diacid = O=C(O)CCCCCCCCCCCCCCCCC(=O)*; γGlu = O=C(O)[C@H](CCC(=O)[*:2])N[*:1]; εLys = N[C@@H](CCCCN[*:1])C(=O)[*:2]; Trx = NC[C@H]1CC[C@H](C(=O)O)CC1; AEEA = NCCOCCOCC(=O)O; Aib = CC(C)(N)C(=O)O
Human AmyR3 potency [EC50 (pM)] values by entry
// note: answer is a bare numeric in pM

Solved cases (3 shown):
binder	Human AmyR3 potency [EC50 (pM)]
Comparator compound 0167 (peptide) peptide: H[Aib]EGTFTSDVSSYLEEQAAREIFAWLVRGRK([AEEA-AEEA-γGlu-Trx-C20 diacid])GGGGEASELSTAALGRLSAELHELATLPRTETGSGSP-NH2	10.9
KCNTATCATQRLANFLVHSSNNFGPILPPTNVGSNTY [Pramlintide]	7.8
Comparator compound 0185 (peptide) peptide: H[Aib]EGTFTSDVSSYLEGQAAKEFIAWLVRGRK([εLys-AEEA-AEEA-γGlu-C18 diacid])GGEASELSTAALGRPSAELHELATLPRTETGSGSP-NH2	5660

Request: Look up Human AmyR3 potency [EC50 (pM)] of Comparator compound 0015 (ends and bridges not checked) peptide: H[Aib]EGTFTSDVSSYLEGQAAK([AEEA-AEEA-γGlu-C18 diacid])EFIAWLVRGRGGQEPGQEPCNTATCATQRLAEFLRHSSNNFGPILPPTNVGSNTP-NH2 and report it.
Result: 312
